Values compiled from patent US20040034219A1.

Entries with reported pKi on serotonin transporter (Rattus norvegicus, UniProt P31652)
Sequence (P31652 whole entry): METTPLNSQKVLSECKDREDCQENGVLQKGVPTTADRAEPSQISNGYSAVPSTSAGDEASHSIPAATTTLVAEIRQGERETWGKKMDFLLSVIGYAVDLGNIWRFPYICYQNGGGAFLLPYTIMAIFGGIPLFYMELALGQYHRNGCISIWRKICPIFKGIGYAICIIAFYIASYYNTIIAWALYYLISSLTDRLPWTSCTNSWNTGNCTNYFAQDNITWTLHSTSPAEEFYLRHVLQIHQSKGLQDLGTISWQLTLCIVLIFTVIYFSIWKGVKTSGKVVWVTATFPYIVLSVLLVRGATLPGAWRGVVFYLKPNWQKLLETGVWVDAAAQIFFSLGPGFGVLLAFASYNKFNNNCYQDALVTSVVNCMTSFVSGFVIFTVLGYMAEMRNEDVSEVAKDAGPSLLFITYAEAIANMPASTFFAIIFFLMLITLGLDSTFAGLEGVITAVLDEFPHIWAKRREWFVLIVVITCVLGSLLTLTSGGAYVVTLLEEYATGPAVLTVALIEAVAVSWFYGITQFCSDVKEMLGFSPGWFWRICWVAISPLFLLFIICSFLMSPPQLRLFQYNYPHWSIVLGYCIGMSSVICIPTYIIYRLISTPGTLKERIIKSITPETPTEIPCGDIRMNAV
Where a name gives a salt, the structure may show the parent alone.
Hey, just a heads up that pKi is the negative log base 10 of the concentration in molar.

Worked examples follow.
{"columns": ["compound", "experimentalTarget", "pKi"],
 "data": [
  ["OC(CCN1CCN(c2ccnc3ccccc23)CC1)c1csc2ccccc12 (stereo not shown) [Example 45, hydrochloride]", "serotonin transporter (Rattus norvegicus, UniProt P31652)", 7.71],
  ["OC(CCN1CCN(c2ccc3ncccc3c2)CC1)c1csc2ccccc12 (stereo not shown)", "serotonin transporter (Rattus norvegicus, UniProt P31652)", 8.66],
  ["Cl.OC(CCN1CCN(c2cccc3cccnc23)CC1)c1csc2ccccc12 (stereo not shown) [Example 33, hydrochloride]", "serotonin transporter (Rattus norvegicus, UniProt P31652)", 8.07]
]}

Ask: Which pKi value is on record for Cc1ccc2cccc(N3CCN(CCC(O)c4csc5ccc(F)cc45)CC3)c2n1 (stereo not shown) ?
Result: 8.07

Ask: Which pKi value is on record for OC(CCN1CCN(c2cccc3c2OCCO3)CC1)c1csc2ccc(F)cc12 (stereo not shown) ?
Result: 7.83

Ask: Which pKi value is on record for OC(CCN1CCN(c2cccc3cccnc23)CC1)c1csc2ccc(F)cc12 (stereo not shown) ?
Result: 8.12

Ask: Which pKi value is on record for O=[N+]([O-])c1ccc2scc(C(O)CCN3CCN(c4cccc5c4OCCO5)CC3)c2c1 (stereo not shown) ?
Result: 8.16

Ask: Which pKi value is on record for Cl.OC(CCN1CCN(c2cccc3[nH]ccc23)CC1)c1csc2ccccc12 (stereo not shown) [Example 35, hydrochloride] ?
Result: 8.39

Ask: Which pKi value is on record for Cc1ccc2cccc(N3CCN(CCC(O)c4csc5ccccc45)CC3)c2n1 (stereo not shown) [Example 36, hydrochloride] ?
Result: 8.00

Ask: Which pKi value is on record for OC(CCN1CCN(c2cccc3ncccc23)CC1)c1csc2ccccc12 (stereo not shown) ?
Result: 7.90

###

Listing: melting point of selected molecules

{"columns": ["molecule", "observedValue"],
 "data": [
  ["Cl.Cl.O=C(CCN1CCN(c2cccc3cccnc23)CC1)c1csc2ccccc12", "150 to 152 °C"],
  ["O=C(CCN1CCN(c2ccnc3ccccc23)CC1)c1csc2ccccc12", "134 to 136 °C"],
  ["O=C(CCN1CCN(c2cccc3[nH]ccc23)CC1)c1csc2ccccc12", "83 to 85 °C"],
  ["O=C(CCN1CCN(c2cnc3ccccc3c2)CC1)c1csc2ccccc12", "112 to 114 °C"],
  ["OC(CCN1CCN(c2cccc3c2OCCO3)CC1)c1csc2ccc(F)cc12 (centres unmarked)", "147 to 150 °C"]
]}

Note: attention shifts to another entry.
Ask: Which melting point value is on record for Cl.OC(CCN1CCN(c2cccc3cccnc23)CC1)c1csc2ccccc12 (centres unmarked) ?
Result: 169 to 170 °C

###

Listing: Ki of selected compounds
# experimentalTarget: 5-HT1A receptors (Rattus norvegicus, UniProt P19327)
# Construct: fraction of membranes isolated from the cerebral cortex of rats
# Sequence (P19327 whole entry): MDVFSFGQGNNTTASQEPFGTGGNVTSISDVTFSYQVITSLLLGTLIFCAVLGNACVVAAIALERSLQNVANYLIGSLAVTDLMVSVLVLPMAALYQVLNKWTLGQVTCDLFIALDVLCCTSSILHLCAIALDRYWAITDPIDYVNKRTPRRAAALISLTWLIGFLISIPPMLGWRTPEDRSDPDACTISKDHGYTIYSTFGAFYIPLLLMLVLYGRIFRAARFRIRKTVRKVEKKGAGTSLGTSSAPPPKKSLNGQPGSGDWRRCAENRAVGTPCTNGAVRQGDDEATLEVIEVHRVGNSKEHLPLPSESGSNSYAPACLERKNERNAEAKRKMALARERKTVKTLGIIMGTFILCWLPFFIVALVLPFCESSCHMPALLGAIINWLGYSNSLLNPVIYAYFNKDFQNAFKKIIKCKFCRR
# assaySummary: Tests for fixing to serotonin 5HT1A receptors, 3H-DPAT displacement
# conditionsUsed: membranes of rat cerebral cortex, 3H-DPAT 1 nM, 15 minutes at 37° C.
Reply numerically in nM, unit not repeated.

Worked examples follow.
{"columns": ["compound", "unitTag", "Ki"],
 "data": [
  ["OC(CCN1CCN(c2cccc3ncccc23)CC1)c1csc2ccccc12 (stereo not shown)", "nM", 26.1],
  ["Cc1ccc2cccc(N3CCN(CCC(O)c4csc5ccc(F)cc45)CC3)c2n1 (stereo not shown)", "nM", 2.5]
]}

Ask: Field: Ki (5-HT1A receptors (Rattus norvegicus, UniProt P19327)). Entry: Cl.OC(CCN1CCN(c2cccc3cccnc23)CC1)c1csc2ccccc12 (stereo not shown) [Example 33, hydrochloride]
Result: 1.5

Ask: Field: Ki (5-HT1A receptors (Rattus norvegicus, UniProt P19327)). Entry: Oc1ccc2scc(C(O)CCN3CCN(c4cccc5c4OCCO5)CC3)c2c1 (stereo not shown)
Result: 18.2

Ask: Field: Ki (5-HT1A receptors (Rattus norvegicus, UniProt P19327)). Entry: OC(CCN1CCN(c2cccc3cccnc23)CC1)c1csc2ccc(F)cc12 (stereo not shown)
Result: 2.7

Ask: Field: Ki (5-HT1A receptors (Rattus norvegicus, UniProt P19327)). Entry: OC(CCN1CCN(c2ccc3ccccc3n2)CC1)c1csc2ccccc12 (stereo not shown)
Result: 377

Ask: Field: Ki (5-HT1A receptors (Rattus norvegicus, UniProt P19327)). Entry: "O=C(CCN1CCN(c2cccc3c2OCCO3)CC1)c1csc2ccc([N+](=O)[O-])cc12"
Result: 3.2

###

parameterMeasured: melting point

Worked examples follow.
{"columns": ["compound", "observedValue"],
 "data": [
  ["OC(CCN1CCN(c2cccc3[nH]ccc23)CC1)c1csc2ccc(F)cc12 (centres unmarked) [Example 29]", "170 to 173 °C"],
  ["Cl.OC(CCN1CCN(c2cccc3[nH]ccc23)CC1)c1csc2ccccc12 (centres unmarked) [Example 35]", "> 300 °C"]
]}

Ask: Which melting point value is on record for OC(CCN1CCN(c2cccc3cccnc23)CC1)c1csc2ccc(F)cc12 (centres unmarked) [Example 27] ?
Result: 89 to 91 °C

Ask: Which melting point value is on record for OC(CCN1CCN(c2cccc3ncccc23)CC1)c1csc2ccccc12 (centres unmarked) [Example 37] ?
Result: 127 to 129 °C

Ask: Which melting point value is on record for O=C(CCN1CCN(c2ccc3ccccc3n2)CC1)c1csc2ccccc12 [Example 14] ?
Result: 92 to 96 °C
